Target: TrkA kinase (Homo sapiens)
Construct: purchased Upstate, USA
Test: In vitro TrkA inhibitory activity using TR-FRET assay
Assay type: biochemical
Conditions: 5 ng TrkA, 500 μM ATP, values given as bins, read-out: TrkA inhibition in-vitro IC50
Experimental: Compounds were screened in the TR-FRET assay with TrkA kinase. 5 ng of TrkA [Upstate, USA] kinase was used for assay. The compound was incubated with the kinase for 30 minutes at 20-35° C. […] The Eu-labelled antiphospho-tyrosine antibody [Perkin Elmer, USA] was added at 0.5 nM and the fluorescence emission at 615 nm/665 nm [excitation at 340 nm] was measured. […] The fluorescence was measured in Perkin Elmer Wallac 1420 Multilabel Counter Victor 3. […]
reported metric: IC50

{"molecule": "CC(C)(C)S(=O)(=O)NC(=O)c1cnc2ccc(N3C[C@@H](F)C[C@@H]3c3cc(F)ccc3O[C@@H]3CCOC3)cn12", "target system": "TrkA kinase (Homo sapiens)", "result value": "≤ 50 nM"}
{"molecule": "CCN(C)S(=O)(=O)NC(=O)c1cnc2ccc(N3CCCC3c3cc(F)cc4c3OCCO4)cn12 (single isomer, unassigned)", "target system": "TrkA kinase (Homo sapiens)", "result value": "100 to 500 nM"}
{"molecule": "O=C(NC1CCOCC1)c1cnc2ccc(N3CCC[C@@H]3c3cc(F)ccc3F)cn12", "target system": "TrkA kinase (Homo sapiens)", "result value": "100 to 500 nM"}

For each entry beneath this line, provide reported IC50.
1. CN(c1ccn(C)n1)S(=O)(=O)NC(=O)c1cnc2ccc(N3CCC[C@@H]3c3cc(F)ccc3OC3CCOCC3)cn12
2. CCCN(C)S(=O)(=O)NC(=O)c1cnc2ccc(N3C[C@@H](F)C[C@@H]3c3cc(F)ccc3OC3CCOCC3)cn12
3. COCCN(C)S(=O)(=O)NC(=O)c1cnc2ccc(N3CCC[C@@H]3c3cc(F)ccc3O[C@@H]3CCOC3)cn12
4. COCCN(C)S(=O)(=O)NC(=O)c1cnc2ccc(N3CCC[C@@H]3c3cc(F)ccc3OC3CCOCC3)cn12
5. COCCN(C)S(=O)(=O)NC(=O)c1cnc2ccc(N3C[C@@H](F)C[C@@H]3c3cc(F)ccc3O[C@@H]3CCOC3)cn12
6. O=C(c1cnc2ccc(N3CCCC3c3cc(F)ccc3F)cn12)N1CC(O)C1 (single isomer, unassigned) [Example 73]
7. Cc1ccc(N(C)S(=O)(=O)NC(=O)c2cnc3ccc(N4C[C@@H](F)C[C@@H]4c4cc(F)ccc4O[C@@H]4CCOC4)cn23)nn1
8. Cc1nnc(N(C)S(=O)(=O)NC(=O)c2cnc3ccc(N4CCC[C@@H]4c4cc(F)ccc4OC4CCOCC4)cn23)s1

["50 to 100 nM", "≤ 50 nM", "≤ 50 nM", "50 to 100 nM", "≤ 50 nM", "≤ 50 nM", "≤ 50 nM", "≤ 50 nM"]

For each entry beneath this line, provide reported IC50.
1. CN(CCF)S(=O)(=O)NC(=O)c1cnc2ccc(N3C[C@@H](F)C[C@@H]3c3cc(F)ccc3O[C@@H]3CCOC3)cn12
2. O=C(NS(=O)(=O)c1ccc(N2CC[C@H](O)C2)cc1)c1cnc2ccc(N3CCC[C@@H]3c3cc(F)ccc3F)cn12
3. O=C(NC[C@H](O)CO)c1cnc2ccc(N3CCC[C@@H]3c3cc(F)ccc3F)cn12

1. ≤ 50 nM
2. 100 to 500 nM
3. 50 to 100 nM

###

Provide the reported pIC50 of each item.
Biological target: TrkA kinase (Homo sapiens, UniProt P04629)
Construct: purchased Upstate, USA
Sequence (P04629 33-796): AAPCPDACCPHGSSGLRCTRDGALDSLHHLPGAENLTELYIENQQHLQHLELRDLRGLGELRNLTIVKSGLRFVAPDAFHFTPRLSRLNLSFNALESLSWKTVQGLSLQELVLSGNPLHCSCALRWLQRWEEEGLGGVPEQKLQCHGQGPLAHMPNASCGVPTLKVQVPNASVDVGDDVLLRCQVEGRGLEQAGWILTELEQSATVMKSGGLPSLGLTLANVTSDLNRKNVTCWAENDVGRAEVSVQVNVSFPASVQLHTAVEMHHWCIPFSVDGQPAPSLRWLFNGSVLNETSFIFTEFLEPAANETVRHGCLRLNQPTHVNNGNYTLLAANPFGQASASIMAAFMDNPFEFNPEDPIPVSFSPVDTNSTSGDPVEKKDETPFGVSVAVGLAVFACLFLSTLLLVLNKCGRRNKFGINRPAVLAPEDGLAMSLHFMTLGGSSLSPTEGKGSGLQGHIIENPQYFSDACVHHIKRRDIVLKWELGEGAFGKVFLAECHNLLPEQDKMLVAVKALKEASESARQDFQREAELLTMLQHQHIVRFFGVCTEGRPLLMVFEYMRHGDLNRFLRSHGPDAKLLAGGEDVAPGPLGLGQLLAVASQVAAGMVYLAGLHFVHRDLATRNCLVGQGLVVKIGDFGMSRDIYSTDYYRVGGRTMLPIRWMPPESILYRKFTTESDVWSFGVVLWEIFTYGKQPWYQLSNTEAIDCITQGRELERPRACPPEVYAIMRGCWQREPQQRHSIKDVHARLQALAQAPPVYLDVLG
Test: In vitro TrkA inhibitory activity using TR-FRET assay
Format: biochemical
Details: 5 ng TrkA, 500 μM ATP, values given as bins, read-out: TrkA inhibition in-vitro IC50
pIC50: −log10 of the molar value.

Some compounds with recorded pIC50:
{"smiles": "O=C(NS(=O)(=O)c1ccc(N2CC[C@H](O)C2)nc1)c1cnc2ccc(N3CCC[C@@H]3c3cc(F)ccc3F)cn12", "pIC50": "6.30 to 7.00"}
{"smiles": "CN(CC(C)(C)F)S(=O)(=O)NC(=O)c1cnc2ccc(N3CCC[C@@H]3c3cc(F)ccc3F)cn12", "pIC50": "≥ 7.30"}
{"smiles": "CN(C)S(=O)(=O)NC(=O)c1cnc2ccc(N3CCC[C@@H]3c3cc(F)ccc3O[C@@H]3CCOC3)cn12", "pIC50": "≥ 7.30"}
{"smiles": "Cc1nnc(N(C)S(=O)(=O)NC(=O)c2cnc3ccc(N4C[C@@H](F)C[C@@H]4c4cc(F)ccc4O[C@@H]4CCOC4)cn23)s1", "pIC50": "≥ 7.30"}

For each entry beneath this line, provide reported pIC50.
1. CN(c1ccn(C)n1)S(=O)(=O)NC(=O)c1cnc2ccc(N3C[C@@H](F)C[C@@H]3c3cc(F)ccc3O[C@@H]3CCOC3)cn12
2. CCN(CCF)S(=O)(=O)NC(=O)c1cnc2ccc(N3C[C@@H](F)C[C@@H]3c3cc(F)ccc3O[C@@H]3CCOC3)cn12
3. CN(C1CC1)S(=O)(=O)NC(=O)c1cnc2ccc(N3C[C@@H](F)C[C@@H]3c3cc(F)ccc3OC3CCOCC3)cn12

["≥ 7.30", "≥ 7.30", "≥ 7.30"]

###

Target: TrkA kinase (Homo sapiens, UniProt P04629)
Construct: purchased Upstate, USA
Assay: In vitro TrkA inhibitory activity using TR-FRET assay
Assay type: biochemical
Details: 5 ng TrkA, 500 μM ATP, values given as bins, read-out: TrkA inhibition in-vitro IC50
Provide the reported IC50 of each item.

{"compound": "CN(C)C(=O)c1cnc2ccc(N3CCCC3c3cc(F)ccc3F)cn12 (stereo not shown) [Example 8]", "IC50": "100 to 500 nM"}
{"compound": "COCCN(C)S(=O)(=O)NC(=O)c1cnc2ccc(N3CCC[C@@H]3c3cc(F)ccc3F)cn12 [Example 39]", "IC50": "≤ 50 nM"}
{"compound": "CCN(C)S(=O)(=O)NC(=O)c1cnc2ccc(N3CCC[C@@H]3c3cc(F)ccc3OC3CCOCC3)cn12 [Example 80]", "IC50": "50 to 100 nM"}

Could you share which IC50 value was measured for O=C(Nc1cnc2ccc(N3CCCC3c3cc(F)ccc3F)cn12)N1CC[C@H](O)C1 (stereo partly shown) [Example 2] ?
100 to 500 nM
